Test system: BCL-2-dependent acute lymphoblastic leukemia (ALL) cell line RS4;11 overexpressing Bcl-2 G101V
experimental.protocol: cells
Assay type: cell-based
reported.conditions: Homo sapiens, RS4-11, 72 h, read-out: RS4;11-G101V IC50
assay.metric: IC50 (nM)
Reply numerically in nM, unit not repeated.

Req: Please look up its IC50: COc1cc(C(N)=O)ccc1NC(=O)[C@@H]1N[C@@H](CC(C)(C)C)[C@@]2(CNc3cc(Cl)ccc32)[C@H]1c1cccc(Cl)c1F
Resp: 33

====

Please provide measured IC50 for the entries that follow.
experimental.system: MDM2 (Homo sapiens (Human))
experimental.protocol: In vitro MDM2 HTRF assay (inhibition of p53-MDM2 interaction)
reported.conditions: GST-MDM2 / biotinylated p53 peptide
Reply numerically in nM, unit not repeated.

Req: Please look up its IC50: COc1cc(C(=O)N[C@@H]2CCCN(CC#Cc3cccc4c3CN(C3CCC(=O)NC3=O)C4=O)C2)ccc1NC(=O)[C@@H]1N[C@@H](CC(C)(C)C)[C@@]2(CNc3cc(Cl)ccc32)[C@H]1c1cccc(Cl)c1F (stereo partly drawn) [Example 50]
Resp: 1.59

Req: Please look up its IC50: COc1cc(C(N)=O)ccc1NC(=O)[C@@H]1N[C@@H](CC(C)(C)C)[C@@]2(CNc3cc(C(F)(F)F)ncc32)[C@H]1c1cccc(Cl)c1F [Example 11]
Resp: 0.18

Req: Please look up its IC50: COc1cc(N2CCC([C@@H]3C[C@H]3C#Cc3cccc4c3CN(C3CCC(=O)NC3=O)C4=O)CC2)ccc1NC(=O)[C@@H]1N[C@@H](CC(C)(C)C)[C@@]2(CNc3cc(Cl)ccc32)[C@H]1c1cccc(Cl)c1F (stereo partly drawn) [Example 26]
Resp: 46.8

====

experimental.system: MDM2 (Homo sapiens (Human), UniProt Q00987)
Sequence (Q00987 whole entry): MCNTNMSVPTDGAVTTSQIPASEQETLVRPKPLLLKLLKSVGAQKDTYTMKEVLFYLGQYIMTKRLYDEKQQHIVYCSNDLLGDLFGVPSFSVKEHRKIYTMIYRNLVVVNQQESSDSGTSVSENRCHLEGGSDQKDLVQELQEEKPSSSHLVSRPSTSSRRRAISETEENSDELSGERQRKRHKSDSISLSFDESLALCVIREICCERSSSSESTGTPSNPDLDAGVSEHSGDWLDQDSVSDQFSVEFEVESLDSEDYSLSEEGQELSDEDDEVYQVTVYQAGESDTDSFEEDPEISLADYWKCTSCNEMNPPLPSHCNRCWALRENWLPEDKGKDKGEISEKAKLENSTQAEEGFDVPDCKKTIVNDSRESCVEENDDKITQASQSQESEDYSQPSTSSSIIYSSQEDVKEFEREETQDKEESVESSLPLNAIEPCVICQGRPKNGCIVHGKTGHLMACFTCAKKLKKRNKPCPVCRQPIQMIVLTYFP
experimental.protocol: In vitro MDM2 HTRF assay (inhibition of p53-MDM2 interaction)
reported.conditions: GST-MDM2 / biotinylated p53 peptide
assay.metric: IC50 (µM)
Reply numerically in µM, unit not repeated.

Req: Please look up its IC50: COc1cc(N2CCC3(CC2)CC([C@H]2C[C@@H]2C#Cc2cccc4c2CN(C2CCC(=O)NC2=O)C4=O)C3)ccc1NC(=O)[C@@H]1N[C@@H](CC(C)(C)C)[C@@]2(CNc3cc(Cl)ccc32)[C@H]1c1cccc(Cl)c1F (some centres unmarked) [Example 23]
Resp: 0.169

Req: Please look up its IC50: COc1cc(N2CCC3(CC2)CC([C@@H]2C[C@H]2C#Cc2cccc4c2CN(C2CCC(=O)NC2=O)C4=O)C3)ccc1NC(=O)[C@@H]1N[C@@H](CC(C)(C)C)[C@@]2(CNc3cc(Cl)ccc32)[C@H]1c1cccc(Cl)c1F (some centres unmarked) [Example 22]
Resp: 0.272

Req: Please look up its IC50: COc1cc(C(=O)NCCCC#Cc2cccc3c2CN(C2CCC(=O)N(C)C2=O)C3=O)ccc1NC(=O)[C@@H]1N[C@@H](CC(C)(C)C)[C@@]2(CNc3cc(Cl)ccc32)[C@H]1c1cccc(Cl)c1F (some centres unmarked) [Example 19]
Resp: 0.00203

Req: Please look up its IC50: COc1cc(C(N)=O)ccc1NC(=O)[C@H]1N[C@H](CC(C)(C)C)[C@]2(CNc3cc(C(F)(F)F)ncc32)[C@@H]1c1cccc(Cl)c1F [Example 12]
Resp: 0.103

Req: Please look up its IC50: COc1cc(C(=O)N2CCC3(CC2)C[C@@H]3C#Cc2cccc3c2CN([C@H]2CCC(=O)NC2=O)C3=O)ccc1NC(=O)[C@@H]1N[C@@H](CC(C)(C)C)[C@@]2(CNc3cc(Cl)ccc32)[C@H]1c1cccc(Cl)c1F [Example 58]
Resp: 0.00338

Req: Please look up its IC50: COc1cc(C(=O)N2CC[C@@H](C#Cc3cccc4c3CN(C3CCC(=O)NC3=O)C4=O)C2)ccc1NC(=O)[C@@H]1N[C@@H](CC(C)(C)C)[C@@]2(CNc3cc(Cl)ccc32)[C@H]1c1cccc(Cl)c1F (some centres unmarked) [Example 49]
Resp: 0.00105

Req: Please look up its IC50: COc1cc(N2CCC([C@H]3C[C@@H]3C#Cc3cccc4c3CN(C3CCC(=O)NC3=O)C4=O)CC2)ccc1NC(=O)[C@@H]1N[C@@H](CC(C)(C)C)[C@@]2(CNc3cc(Cl)ccc32)[C@H]1c1cccc(Cl)c1F (some centres unmarked) [Example 27]
Resp: 0.0165

Req: Please look up its IC50: CC(C)(C)C[C@H]1N[C@H](C(=O)N2CCOc3cc(C(N)=O)ccc32)[C@@H](c2cccc(Cl)c2F)[C@@]12CNc1cc(Cl)ccc12 [Example 15]
Resp: 0.638

Req: Please look up its IC50: COc1cc(N2CCC[C@H](C#Cc3cccc4c3CN([C@H]3CCC(=O)NC3=O)C4=O)C2)ccc1NC(=O)[C@@H]1N[C@@H](CC(C)(C)C)[C@@]2(CNc3cc(Cl)ccc32)[C@H]1c1cccc(Cl)c1F [Example 28]
Resp: 0.0108

Req: Please look up its IC50: COc1cc(C(=O)N2CC[C@H](C#Cc3cccc4c3CN(C3CCC(=O)NC3=O)C4=O)C2)ccc1NC(=O)[C@@H]1N[C@@H](CC(C)(C)C)[C@@]2(CNc3cc(Cl)ccc32)[C@H]1c1cccc(Cl)c1F (some centres unmarked) [Example 48]
Resp: 0.00121

Req: Please look up its IC50: COc1cc(C(=O)NCCCC#Cc2cccc3c2CN(C2CCC(=O)NC2=O)C3=O)ccc1NC(=O)[C@@H]1N[C@@H](CC(C)(C)C)[C@@]2(CNc3cc(Cl)ccc32)[C@H]1c1cccc(Cl)c1F (some centres unmarked) [Example 16]
Resp: 0.00154
